Target: epithelial sodium channel (ENaC) (Mus musculus, UniProt Q61180+Q9WU38+Q9WU39)
Construct: Mouse kidney M-1 cells were cultivated in DMEM; endogenous in cells; host or cells: mouse kidney M-1 cells (cortical collecting duct line), dexamethasone-treated, on transwell filters
Sequence (Q61180 1-699): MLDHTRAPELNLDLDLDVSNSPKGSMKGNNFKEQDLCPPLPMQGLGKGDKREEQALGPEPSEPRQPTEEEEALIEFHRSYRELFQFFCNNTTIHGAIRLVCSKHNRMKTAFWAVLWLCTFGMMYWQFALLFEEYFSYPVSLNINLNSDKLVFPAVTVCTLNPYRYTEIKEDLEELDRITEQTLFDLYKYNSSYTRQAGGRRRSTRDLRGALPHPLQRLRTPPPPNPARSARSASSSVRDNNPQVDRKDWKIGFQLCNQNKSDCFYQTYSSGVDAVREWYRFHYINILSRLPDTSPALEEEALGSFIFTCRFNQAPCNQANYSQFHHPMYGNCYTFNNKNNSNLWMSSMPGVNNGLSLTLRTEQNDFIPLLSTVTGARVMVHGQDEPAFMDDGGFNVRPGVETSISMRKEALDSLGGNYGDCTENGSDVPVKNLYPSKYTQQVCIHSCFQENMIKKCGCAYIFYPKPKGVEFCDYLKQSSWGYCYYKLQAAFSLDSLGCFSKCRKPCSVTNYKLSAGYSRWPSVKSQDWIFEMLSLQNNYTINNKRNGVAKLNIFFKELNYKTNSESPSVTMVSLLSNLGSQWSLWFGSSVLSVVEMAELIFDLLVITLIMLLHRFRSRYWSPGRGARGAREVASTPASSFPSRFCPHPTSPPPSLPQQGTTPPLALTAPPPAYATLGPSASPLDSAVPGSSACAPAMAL
Sequence (Q9WU38 1-638): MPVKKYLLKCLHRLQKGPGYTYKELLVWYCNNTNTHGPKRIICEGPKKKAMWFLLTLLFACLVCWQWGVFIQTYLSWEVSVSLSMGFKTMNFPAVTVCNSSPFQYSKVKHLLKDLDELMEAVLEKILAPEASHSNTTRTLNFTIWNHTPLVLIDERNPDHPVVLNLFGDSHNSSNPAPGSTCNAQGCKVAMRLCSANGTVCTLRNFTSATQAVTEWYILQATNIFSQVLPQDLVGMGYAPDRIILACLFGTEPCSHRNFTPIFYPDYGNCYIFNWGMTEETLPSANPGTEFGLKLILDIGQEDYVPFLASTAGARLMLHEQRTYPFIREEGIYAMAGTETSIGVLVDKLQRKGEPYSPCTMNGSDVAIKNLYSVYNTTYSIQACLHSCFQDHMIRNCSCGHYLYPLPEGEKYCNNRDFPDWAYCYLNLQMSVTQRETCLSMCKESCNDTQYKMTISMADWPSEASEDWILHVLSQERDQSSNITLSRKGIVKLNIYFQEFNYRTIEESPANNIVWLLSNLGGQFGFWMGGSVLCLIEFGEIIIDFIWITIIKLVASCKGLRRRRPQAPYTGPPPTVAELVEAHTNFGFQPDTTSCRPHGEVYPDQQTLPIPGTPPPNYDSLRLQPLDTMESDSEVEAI
Sequence (Q9WU39 1-655): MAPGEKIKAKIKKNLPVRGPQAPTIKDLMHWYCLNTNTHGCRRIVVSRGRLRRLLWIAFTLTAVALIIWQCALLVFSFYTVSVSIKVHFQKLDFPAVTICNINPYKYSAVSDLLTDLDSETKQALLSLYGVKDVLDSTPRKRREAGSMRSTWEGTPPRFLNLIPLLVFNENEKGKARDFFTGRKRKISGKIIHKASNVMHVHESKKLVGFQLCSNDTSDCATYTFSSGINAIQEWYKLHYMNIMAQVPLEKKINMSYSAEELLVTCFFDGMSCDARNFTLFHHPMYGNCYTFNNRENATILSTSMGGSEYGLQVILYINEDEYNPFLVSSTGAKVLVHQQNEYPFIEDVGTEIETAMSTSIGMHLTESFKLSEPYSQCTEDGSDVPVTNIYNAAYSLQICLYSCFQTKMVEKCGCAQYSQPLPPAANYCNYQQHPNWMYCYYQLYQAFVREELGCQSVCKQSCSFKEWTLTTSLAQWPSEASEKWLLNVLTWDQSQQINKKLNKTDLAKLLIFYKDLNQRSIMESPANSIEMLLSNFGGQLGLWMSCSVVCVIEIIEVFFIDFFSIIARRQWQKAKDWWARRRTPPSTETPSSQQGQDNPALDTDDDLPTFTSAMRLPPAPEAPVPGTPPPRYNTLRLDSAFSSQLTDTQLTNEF
Assay: Ussing Chamber assay: inhibition of amiloride sensitive short circuit current (I_sc) in M-1 cells
Format: cell-based
Details: Ussing Chamber; mouse kidney M-1 cells on transwell filters; short circuit current; compound added to apical solution; 37° C.; read-out: IC50
measured-quantity: IC50 (nM)

Completed entries (count: 3):
chemical-smiles: COCCN(CCOC)C(=O)CN1CCC(NC(N)=NC(=O)c2nc(Cl)c(N)nc2N)CC1
IC50 / nM: 27

chemical-smiles: NC(=O)c1ccc(NC(=O)CN2CCC(NC(N)=NC(=O)c3nc(Cl)c(N)nc3N)CC2)cc1
IC50 / nM: 2

chemical-smiles: NC(=NC(=O)c1nc(Cl)c(N)nc1N)NC1CCN(CC(=O)NCc2ccc(N3CCNC3=O)cc2)CC1
IC50 / nM: 3

A: NC(=NC(=O)c1nc(Cl)c(N)nc1N)NC1CCN(CC2CCCC2)CC1
B: CN1CCC(CN2CCC(NC(N)=NC(=O)c3nc(Cl)c(N)nc3N)CC2)CC1
C: COC(=O)CCN1CCC(NC(=N)NC(=O)c2nc(Cl)c(N)nc2N)CC1
D: NC(=O)c1ccc(CNC(=O)CN2CCC(NC(N)=NC(=O)c3nc(Cl)c(N)nc3N)CC2)cc1
Falling order of IC50, please. Present the labels in the sequence the task asks for.
B, A, C, D
